- Experimental target: UniProt P41279
- Sequence (P41279 30-397): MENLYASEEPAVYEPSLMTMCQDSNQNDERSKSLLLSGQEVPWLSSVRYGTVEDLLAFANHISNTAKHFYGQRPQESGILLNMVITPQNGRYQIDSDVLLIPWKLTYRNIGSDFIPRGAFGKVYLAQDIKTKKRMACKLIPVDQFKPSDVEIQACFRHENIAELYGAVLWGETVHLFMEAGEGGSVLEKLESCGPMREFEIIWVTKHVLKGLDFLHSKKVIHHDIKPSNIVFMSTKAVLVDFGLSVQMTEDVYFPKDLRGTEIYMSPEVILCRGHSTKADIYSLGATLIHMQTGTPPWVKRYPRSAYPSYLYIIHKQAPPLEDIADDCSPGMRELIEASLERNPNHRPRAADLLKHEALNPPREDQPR
- Test description: High Throughput Cot Biochemical Assay (KinEASE TR-FRET)
- Condition description: recombinant human Cot catalytic domain, 400 μM ATP
- Description: Example 24: High Throughput Cot Biochemical Assay Human Cot enzyme activity was measured using KinEASE (Cisbio), a time-resolved fluorescence resonance energy transfer (TR-FRET) immunoassay. […] Formation of phosphorylated peptide is quantified by TR-FRET with Europium as the donor and XL665 the acceptor in a 2-step endpoint assay. […] Fluorescence intensities at 615 nm and 665 nm emission wavelengths were expressed as a ratio (665 nm/615 nm).
Property measured: IC50 (nM)
Give your result in nM as a bare value.

Solved cases (4 shown):
# Compound, Experimental target, IC50, nM
records = [
    ("[2H][C@@](Nc1cc(C#N)c2ncnc(NCC(C)(C)C)c2c1)(c1cn(C2(C#N)CC2)nn1)c1ccccc1Cl [I-20]", "UniProt P41279", 3.3),
    ("CC(C)(C)CNc1ncnc2ccc(N[C@H](c3cn(C4CC4)nn3)c3ccccc3Cl)cc12 [I-8]", "UniProt P41279", 13),
    ("[2H][C@](Nc1cc(Cl)c2ncnc(N[C@H](CCC#N)c3ccccc3)c2c1)(c1ccc(F)cc1)c1cn(C2CC2)nn1 [I-11]", "UniProt P41279", 46),
    ("Fc1ccc(Nc2ncnc3c(Cl)cc(N[C@@H](c4ccccc4)c4cn(C5CCNCC5)nn4)cc23)cc1Cl [II-9]", "UniProt P41279", 8.3),
]

Q) Report IC50 for [2H][C@](Nc1cc(Cl)c2ncnc(NCC(C)(C)C)c2c1)(c1ccc(F)cc1)c1cn(C2(CF)CC2)nn1 [I-16] tested on UniProt P41279.
A) 3.1

Q) API: value(readout= IC50, system= UniProt P41279, query= [2H][C@@](Nc1cc(Cl)c2ncnc(NCC(C)(C)C)c2c1)(c1cn(C2CC2)nn1)c1ccccc1Cl [I-9] )
A) 4.8

Q) Item: Cc1c(C#N)cccc1[C@H](Nc1cc(Cl)c2ncnc(NCC(C)(C)C)c2c1)c1cn(C2(C(F)F)CC2)nn1 [I-23] Test system: UniProt P41279 Read-out: IC50 Value: ?
A) 1.6

---

- Test system: TNFα
- Test description: Cot Monocyte TNFα Cell Based Assay
- Condition description: LPS-stimulated cryopreserved human monocytes, TNFα by TR-FRET
# pEC50 annotations
# reply with the number alone; pEC50 is -log10 of concentration in mol/L

Answered examples (3):
# Molecule, Result value
measured = [
    ("[2H][C@](c1ccc(F)cc1)(c1cn(C2CC2)nn1)N(CC)c1ccc2ncnc(NCC(C)(C)C)c2c1 [I-6]", 5.37),
    ("Cn1ccc2c([C@H](Nc3cc(C#N)c4ncnc(NCC(C)(C)C)c4c3)c3cn(C4(C(F)F)CC4)nn3)cccc2c1=O [I-24]", 7.95),
    ("Fc1ccc(Nc2ncnc3c(Cl)cc(N[C@@H](c4ccccc4)c4cn(C5CCNCC5)nn4)cc23)cc1Cl [II-9]", 6.47),
]

Q) Recorded pEC50 of CC(C)(C)CNc1ncnc2c(Br)cc(N[C@H](c3cn(C4(C(F)(F)F)CC4)nn3)c3cccc4ncsc34)cc12 [I-18] , please.
A) 6.71

Q) pEC50 lookup needed for CC(C)(C)CNc1ncnc2ccc(N[C@H](c3cn(C4CC4)nn3)c3ccccc3Cl)cc12 [I-8] , thanks.
A) 6.77

Q) Record request: pEC50 value, item [2H][C@@](Nc1cc(C#N)c2ncnc(NCC(C)(C)C)c2c1)(c1cn(C2(C#N)CC2)nn1)c1ccccc1Cl [I-20]
A) 7.46

Q) Need pEC50, item [2H][C@](Nc1ccc2ncnc(NCC3(C)CCOCC3)c2c1)(c1ccc(F)cc1)c1cn(C2CC2)nn1 [I-3]
A) 6.53

---

- Tested on: TNFα
- Test description: Cot Monocyte TNFα Cell Based Assay
- Condition description: LPS-stimulated cryopreserved human monocytes, TNFα by TR-FRET
- Experimental: Example 23: Cot Monocyte TNFα Cell Based Assay Cryopreserved human monocytes (Stem Cell Technologies) were thawed, diluted in RPMI with Glutamax (10 mM HEPES, 1× Pen-Strep, 55 μM β-mercaptoethanol, 1 mM Sodium pyruvate) media containing 10% FBS to 0.125×10^6 cells/ml and recovered at 37° C. for 2 hours. […] Cells were then spun out of the media and 5 μl of sample were taken and analyzed for total TNFα content using the TR-FRET Human TNFα detection system (CisBio). […]
Property measured: EC50

# Substance smiles, Experimental target, EC50
rows = [
    ("[2H][C@@](Nc1cc(Cl)c2ncnc(NCC(C)(C)C)c2c1)(c1cn(C2CC2)nn1)c1ccccc1Cl", "TNFα", "86 nM"),
    ("[2H][C@](Nc1cc(Cl)c2ncnc(N[C@H](CCC#N)c3ccccc3)c2c1)(c1ccc(F)cc1)c1cn(C2CC2)nn1", "TNFα", "671 nM"),
    ("[2H][C@](Nc1ccc2ncnc(Nc3cnc(F)c(F)c3)c2c1)(c1ccc(F)cc1)c1cn(C2CC2)nn1", "TNFα", "645 nM"),
]

Q) Field request: EC50 | item: CCN1CCC(n2cc([C@@H](Nc3cc(Cl)c4ncnc(Nc5ccc(F)c(Cl)c5)c4c3)c3ccc(Cl)cc3)nn2)CC1
A) 527 nM

Q) Could you share which EC50 value was measured for CCN1CCC(n2cc([C@@H](Nc3cc(Cl)c4ncnc(Nc5ccc(F)c(Cl)c5)c4c3)c3ccccc3)nn2)CC1 ?
A) 254 nM

Q) Return reported EC50; argument: [2H][C@](Nc1cc(Cl)c2ncnc(NCC(C)(C)C)c2c1)(c1ccc(F)cc1)c1cn(C2(CF)CC2)nn1
A) 46 nM

Q) Record request: EC50 value, item [2H][C@@](Nc1cc(C#N)c2ncnc(NCC(C)(C)C)c2c1)(c1cn(C2CC2)nn1)c1ccccc1Cl
A) 20 nM

Q) What measured EC50 goes with Cc1nc(F)ccc1[C@H](Nc1cc(C#N)c2ncnc(NCC(C)(C)C)c2c1)c1cn(C2(C(F)F)CC2)nn1 ?
A) 36 nM

Q) Param item = [2H][C@](Nc1ccc2ncnc(N[C@H](CC)c3ccccc3)c2c1)(c1ccc(F)cc1)c1cn(C2CC2)nn1 ; retrieve measured EC50.
A) 796 nM

Q) Please give the measured EC50 for this compound: CC(C)(C)CNc1ncnc2c(C#N)cc(N[C@H](c3cn(C4(C(F)(F)F)CC4)nn3)c3cccc4ncsc34)cc12
A) 59 nM

Q) Can you share its EC50? I mean this compound: [2H][C@](Nc1cc(Cl)c2ncnc(N[C@H](CCC#N)c3ccccc3)c2c1)(c1ccc(F)cc1)c1cn(C2(C(F)(F)F)CC2)nn1
A) > 1000 nM

Q) For the compound shown here, Cn1ccc2c([C@H](Nc3cc(Cl)c4ncnc(NCC(C)(C)C)c4c3)c3cn(C4(C(F)F)CC4)nn3)cccc2c1=O , give the reported EC50.
A) 25.5 nM

Q) Fill in the blank: the reported EC50 of [2H][C@@](Nc1cc(Cl)c2ncnc(NCC(C)(C)C)c2c1)(c1cn(CC(=O)O)nn1)c1ccccc1Cl is ____.
A) > 1000 nM

Q) Endpoint output: EC50 of Fc1ccc(Nc2ncnc3ccc(N[C@@H](c4ccc(Cl)cc4)c4cn(C5CCN(C6COC6)CC5)nn4)cc23)cc1Cl . Value?
A) 1240 nM

Q) Bench note: what EC50 did [2H][C@](Nc1cc(C#N)c2ncnc(NCC(C)(C)C)c2c1)(c1ccc(F)cc1)c1cn(C2CC2)nn1 show?
A) 42 nM
